# ASSAYED_SYSTEM: T1, mouse Ig1,2 TrkA (recombinant D4-D5 domain of murine TrkA receptor) (mouse, UniProt Q3UFB7 193-413)
# T1 construct: also called mTrkA Ig1,2
# T1 sequence (Q3UFB7 other isoform, or with tags, fused parts or gaps limits assumed): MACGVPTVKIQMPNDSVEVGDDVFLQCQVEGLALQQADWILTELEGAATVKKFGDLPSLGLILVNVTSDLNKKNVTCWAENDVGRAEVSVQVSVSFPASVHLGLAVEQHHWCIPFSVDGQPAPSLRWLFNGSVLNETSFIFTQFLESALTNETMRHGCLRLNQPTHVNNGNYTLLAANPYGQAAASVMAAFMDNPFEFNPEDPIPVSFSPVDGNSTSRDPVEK
# ASSAY: SPR (Biacore X-100); scFv immobilised on CM5 chip, mouse Ig1,2 TrkA injected
REPORTED_PROPERTY: koff

- anti-TrkA scFv CRB0022 (scFv, From mSPLINT selection) scFv: DIVLTQSPALMSASPGEKVTMTCSASSSVSYMYWYQQKPRSSPKPWIYLTSNLASGVPARFSGSGSGTSYSLTISSMEAEDAATYYCQQWSSNPYTFGGRTRLEIKPSGGSTSGSGKPGSGEDSSGAQVQLQQSGAELVKPGASVELSCTASGFNIKDTYMHWVKQRPEQGLEWIGGIDPANGNTIYVPKFQGKATITADTSSNTAYLQLSSLTSEDTAVYYCARGGYDFDYAMDYWGQGTSVTVSS: 1.09e-05 s⁻¹
- anti-TrkA scFv CRB0036 (scFv, From mSPLINT selection) scFv: DIVMTQAAPSVPVTPGESVSISCRSSKSLLHSSGITSLYWYLQRPGQSPQLPIYRMSSLASGVPDRFSVSGSGTAFTLRISRVEAEDVGVYYCMQHLEYPLTFGAGTKLELKRSGGSTSGSGKPGSGEGSSGTQVQLQQSGAELLKPGASVKISCKATGYTFSNYWIEWVKQRPGHGLEWIGEILPGSGSAHYSEKFKDKATFTADTSSNTAYMQLSSLTSEDSAVYFCTRSPPNPGYWGQGTSVTVSS: 7.07e-06 s⁻¹
- anti-TrkA scFv CRB0089 (scFv, From hSPLINT_09 selection) scFv: QTVVTQEPSVSGAPGQRVTISCTGSSSIIGAGYEVHWYQHLPGTAPKLLIYDSINRPSGVPDRFSGSKSGTSASLAITGLQAEDEADYYCQSSAIFGGGTKLTVLSGGSTSGSGKPGSGEGSSGTQVQLQESGPGLVKPSQTLSLTCAISGDSVSSNSAAWNWIRQSPSRGLEWLGRTFHRSRWYNEYPVSVRSRITINPDTSNNQFTLQLNSVTPDDTAVYYCARAPVAGLTFDIWGQGTMVTVSS: 3.19e-05 s⁻¹
